IC50 by entry:
- assay_name: Inhibition of beta-lactamase KPC-2 assessed as nitrocefin hydrolysis after 5 mins enzyme-compound preincubation
readout_type: IC50 (µM)

compound: O=C(O)[C@H]1/C(=C/CO)O[C@@H]2CC(=O)N21 [CLAVULANIC ACID]
readout_unit: µM
value_comparator: >
recorded_result: 100

compound: C[C@]1(Cn2ccnn2)[C@H](C(=O)O)N2C(=O)C[C@H]2S1(=O)=O [TAZOBACTAM]
readout_unit: µM
value_comparator: =
recorded_result: 50

compound: NC(=O)[C@@H]1CC[C@@H]2CN1C(=O)N2OS(=O)(=O)O (relative stereo) [AVIBACTAM]
readout_unit: µM
value_comparator: =
recorded_result: 0.17

compound: CC1(C)[C@H](C(=O)O)N2C(=O)C[C@H]2S1(=O)=O [SULBACTAM]
readout_unit: µM
value_comparator: =
recorded_result: 57
